All values here come from ChEMBL document CHEMBL1201862.

# Tested on: NCI-H522
# procedure details: NCI tumour cell line growth inhibition, 48 h
Activity calls are given as the source filed them. Cut-off read from the data, not from the text of the source: active = GI50 up to about 1.1 µM and inactive = higher.
experimental endpoint: GI50

Query: Determine its reported GI50: `CN(C)CCNCCN`
Reply: > 100 µM (inactive)

Query: Determine its reported GI50: CCOC(=O)C1=NNC(C(=O)c2ccccc2)C1c1ccccc1 (stereo not drawn)
Reply: 1.15 µM (inactive)

Query: Determine its reported GI50: Nc1nc(N)c2ncn(CC(CO)CC(c3ccccc3)P(=O)(O)O)c2n1 (stereo not drawn)
Reply: > 100 µM (inactive)

Query: Determine its reported GI50: CC(=O)N1CC2Nc3ccccc3C2CC1CO (stereo not drawn)
Reply: > 100 µM (inactive)

Query: Determine its reported GI50: COc1cc(/C=C2/SC(c3ccccc3)N(c3ccc(Cl)cc3)C2=O)cc(OC)c1OC (stereo not drawn)
Reply: 18.3 µM (inactive)

Query: Determine its reported GI50: `Cc1ccc(S(=O)(=O)N2CCCN(S(=O)(=O)c3ccc(C)cc3)CC2)cc1`
Reply: > 100 µM (inactive)

Query: Determine its reported GI50: COc1cc2c(cc1OCCCC(=O)Nc1cc(C(=O)Nc3cc(C(=O)Nc4cc(C(=O)NCCCN(C)C)n(C)n4)n(C)c3)n(C)c1)N=CC1CCCN1C2=O (stereo not drawn)
Reply: 2.28 µM (inactive)

Query: Determine its reported GI50: COC(=O)C(=O)C(C(=O)C(=O)Nc1cccc(OC)c1)c1nc2ccc(Cl)cc2nc1O (stereo not drawn)
Reply: > 100 µM (inactive)
